Target: hGcgR (Homo sapiens, UniProt P47871)
Sequence (P47871 26-477): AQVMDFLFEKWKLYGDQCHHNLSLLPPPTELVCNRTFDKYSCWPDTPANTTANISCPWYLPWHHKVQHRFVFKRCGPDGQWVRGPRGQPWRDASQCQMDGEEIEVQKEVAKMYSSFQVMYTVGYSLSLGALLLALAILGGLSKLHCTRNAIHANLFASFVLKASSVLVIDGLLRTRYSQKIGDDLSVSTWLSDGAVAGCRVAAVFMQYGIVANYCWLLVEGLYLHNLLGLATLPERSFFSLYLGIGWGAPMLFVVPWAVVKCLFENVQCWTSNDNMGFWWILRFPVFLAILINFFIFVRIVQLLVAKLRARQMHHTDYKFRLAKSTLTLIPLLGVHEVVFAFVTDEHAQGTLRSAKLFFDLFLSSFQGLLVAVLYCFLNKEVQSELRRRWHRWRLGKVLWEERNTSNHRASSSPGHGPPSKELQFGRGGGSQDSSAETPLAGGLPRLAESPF
Test: Functional cAMP activation in the presence of 0.1% casein (no HSA);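 note: intracellular cAMP rise after 30 min at 37 °C, read by HTRF against a cAMP standard curve, scaled from buffer only (0%) to maximal control ligand response (100%)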
Type: cell-based
Details: in the presence of 0.1% casein (no HSA); geometric mean; read-out: Relative cAMP EC50, hGcgR
Starred links: 1 amine or outer side, 2 acyl side, 3 side chain; linkers in the order of their positions; H or OH if unused. Non-standard residues stand in square brackets, D forms with d. Groups on a side chain read outwards from the residue. No end group written: not given here. *: point of attachment. C20 diacid = O=C(O)CCCCCCCCCCCCCCCCCCC(=O)*; C18 diacid = O=C(O)CCCCCCCCCCCCCCCCC(=O)*; Phe(4-CN) = N#Cc1ccc(C[C@H](N)C(=O)O)cc1; αMePhe(2-F) = C[C@](N)(Cc1ccccc1F)C(=O)O; γGlu = O=C(O)[C@H](CCC(=O)[*:2])N[*:1]; αMe4Pal = C[C@](N)(Cc1ccncc1)C(=O)O; 4Pal = N[C@@H](Cc1ccncc1)C(=O)O; αMeL = CC(C)C[C@](C)(N)C(=O)O; Orn = NCCC[C@H](N)C(=O)O; Dap = NC[C@H](N)C(=O)O; AEEA = NCCOCCOCC(=O)O; Aib = CC(C)(N)C(=O)O
reported endpoint: EC50 (nM)
Numbers only, in nM.

[[record]]
substance = "H-Y[Aib]QGT[αMePhe(2-F)]TSD[Phe(4-CN)]SKLLDKIAQK([AEEA-γGlu-C20 diacid])AFIEYLIEGGPSSGEPPPSGS-NH2 [Example 364]"
assayed_target = "hGcgR (Homo sapiens, UniProt P47871)"
reported_endpoint = "EC50"
assay_result = 10.2

[[record]]
substance = "H-Y[Aib]QGTFTSDFS[Orn][αMeL]LDKK([AEEA-γGlu-γGlu-C18 diacid])AQ[Aib]AFIEYLLE[Aib]GHSSGAPPPSGS-NH2 [Example 243]"
assayed_target = "hGcgR (Homo sapiens, UniProt P47871)"
reported_endpoint = "EC50"
assay_result = 6.86

[[record]]
substance = "H-Y[Aib]QGTFTSDFS[Orn][αMeL]LDKK([AEEA-γGlu-C18 diacid])AQ[Aib]AFIEYLLAGGPSSGAPPPSGSE-NH2 [Example 90]"
assayed_target = "hGcgR (Homo sapiens, UniProt P47871)"
reported_endpoint = "EC50"
assay_result = 9.58

[[record]]
substance = "Y[Aib]QGTFTSD[4Pal]SQ[αMeL]LDKK([γGlu-γGlu-C18 diacid])AQ[αMe4Pal]AFIE[αMe4Pal]LIE[Aib]GPSSGAPPPSGEE-NH2 [Example 1121]"
assayed_target = "hGcgR (Homo sapiens, UniProt P47871)"
reported_endpoint = "EC50"
assay_result = 8.83

[[record]]
substance = "H-Y[Aib]QGTFTSDFS[Orn][αMeL]LDKK([AEEA-γGlu-C18 diacid])AQ[Aib]AFIEWLLEGGSSSGAPPPSGS-NH2 [Example 173]"
assayed_target = "hGcgR (Homo sapiens, UniProt P47871)"
reported_endpoint = "EC50"
assay_result = 3.6


Could you tell me EC50 for each of these substances? They are listed below.
1. H-Y[Aib]QGTFTSD[4Pal]SQ[αMeL]LDKK([AEEA-γGlu-C18 diacid])AQ[αMe4Pal]AFIEWLIEGGPSSGAPPPSGT-NH2 [Example 831]
2. H-Y[Aib]QGTFTSD[4Pal]SQ[αMeL]LDKK([AEEA-γGlu-C18 diacid])AQ[αMe4Pal]AFIEYLIE[Aib]GPSSGAPPPSG[4Pal]-NH2 [Example 835]
3. H-Y[Aib]QGTFTSDYS[Dap][αMeL]LDKK([AEEA-γGlu-C18 diacid])AQ[Aib]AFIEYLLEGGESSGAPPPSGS-NH2 [Example 360]
4. H-Y[Aib]QGTFTSD[4Pal]SK[αMeL]LDKK([AEEA-γGlu-C18 diacid])AQ[αMe4Pal]AFIEYLIE[Aib]GPSSGAPPPSGS-NH2 [Example 915]
5. H-Y[Aib]QGTFTSDYSK[αMeL]LDKK([AEEA-γGlu-C20 diacid])AQQAFIEYLIAGGPSSGEPPPSGD-NH2 [Example 337]
6. H-Y[Aib]QGTFTSD[4Pal]SQ[αMeL]LD[Orn]K([γGlu-γGlu-C18 diacid])AQ[αMe4Pal]AFIEYLIA[Aib]GPSSGEPPPSGSEE-NH2 [Example 1092]

OUT:
[4.63, 3.83, 5.28, 0.882, 5.95, 3.45]
